Target: CD3ε homodimer protein (human, UniProt P07766 23-126, limits assumed)
Sequence (P07766 23-126 limits assumed): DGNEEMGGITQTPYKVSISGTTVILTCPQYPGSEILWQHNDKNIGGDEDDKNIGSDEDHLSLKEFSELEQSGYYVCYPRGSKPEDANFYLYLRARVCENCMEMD
Test: SPR, immobilized CD3ε homodimer;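 note: biacore T200 surface plasmon resonance at 25 °C, antibody variants flowed as analytes over amine-coupled CD3ε homodimer on a CM4 chip, variant binding amount divided by that of GLS3000 antibody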
For each entry below, report its ratio of amounts bound (vs GLS3000) value.

INSERT INTO assay_data (binder, measure_name, recorded_result) VALUES
  ('GLS3000 G91Y (antibody, name in Kabat numbering, V domains shown, one-arm format as m2) VH: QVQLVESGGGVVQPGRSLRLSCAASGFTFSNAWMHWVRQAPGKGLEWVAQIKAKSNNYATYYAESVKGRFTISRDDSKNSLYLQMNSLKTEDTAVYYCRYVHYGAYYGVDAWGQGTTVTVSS VL: DIVMTQSPLSLPVTPGEPASISCRSSQSLVHSNRNTYLHWYQQKPGQAPRLLIYKVSNRFSGVPDRFSGSGSGTDFTLKISRVEAEDVGVYYCGQYTQVPYTFGQGTKLEIK', 'ratio of amounts bound (vs GLS3000)', 0.17);

Shift focus to the following entry.
Note to self: ratio of amounts bound (vs GLS3000) recorded for GLS3000 S27eW (antibody, name in Kabat numbering, V domains shown, one-arm format as m2) VH: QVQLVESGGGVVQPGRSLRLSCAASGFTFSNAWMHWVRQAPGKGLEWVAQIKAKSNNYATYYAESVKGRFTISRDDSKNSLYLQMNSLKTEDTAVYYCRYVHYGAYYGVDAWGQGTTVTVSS VL: DIVMTQSPLSLPVTPGEPASISCRSSQSLVHWNRNTYLHWYQQKPGQAPRLLIYKVSNRFSGVPDRFSGSGSGTDFTLKISRVEAEDVGVYYCGQGTQVPYTFGQGTKLEIK was 1.55

Cited source: patent US20220040297A1
